These data points were gathered from ChEMBL document CHEMBL4118216.

- assayed-system: Bifunctional epoxide hydrolase 2 (Rattus norvegicus)
- Sequence (P80299 whole entry): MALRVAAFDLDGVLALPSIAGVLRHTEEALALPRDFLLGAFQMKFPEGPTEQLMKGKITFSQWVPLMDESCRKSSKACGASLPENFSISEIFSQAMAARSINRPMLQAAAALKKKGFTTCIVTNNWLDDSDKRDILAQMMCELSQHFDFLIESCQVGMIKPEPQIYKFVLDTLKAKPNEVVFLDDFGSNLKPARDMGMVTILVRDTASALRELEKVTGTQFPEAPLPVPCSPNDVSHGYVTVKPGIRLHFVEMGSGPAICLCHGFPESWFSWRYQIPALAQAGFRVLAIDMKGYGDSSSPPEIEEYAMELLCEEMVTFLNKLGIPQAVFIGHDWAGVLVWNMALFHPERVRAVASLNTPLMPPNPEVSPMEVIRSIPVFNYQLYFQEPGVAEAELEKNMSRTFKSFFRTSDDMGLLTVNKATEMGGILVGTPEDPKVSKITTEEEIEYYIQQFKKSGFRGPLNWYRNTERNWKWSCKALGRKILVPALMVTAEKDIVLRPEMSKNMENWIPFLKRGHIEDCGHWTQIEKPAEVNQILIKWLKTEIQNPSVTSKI
- protocol-text: Inhibition of rat sEH using CMNPC as substrate preincubated for 5 mins followed by substrate addition measured for 10 mins by fluorescent based assay
Rule: measured IC50 below 60 nM gets YES; anything equal to or greater than 60 nM gets NO.

S=C(NCCCCCCCCNC(=S)NC12CC3CC(CC(C3)C1)C2)NC12CC3CC(CC(C3)C1)C2 = NO
S=C(NCCc1ccccc1)NC1C2CC3CC(C2)CC1C3 (stereo not given) = NO
S=C(NCCCCCNC(=S)NC12CC3CC(CC(C3)C1)C2)NC12CC3CC(CC(C3)C1)C2 = YES

# input for lookup
Lab note: IC50 threshold 60 nM. Does this compound come in strictly under it? `S=C(NCCCNC(=S)NC12CC3CC(CC(C3)C1)C2)NC12CC3CC(CC(C3)C1)C2` YES

====

- assayed-system: Bifunctional epoxide hydrolase 2 (Homo sapiens)
- Sequence (P34913 whole entry): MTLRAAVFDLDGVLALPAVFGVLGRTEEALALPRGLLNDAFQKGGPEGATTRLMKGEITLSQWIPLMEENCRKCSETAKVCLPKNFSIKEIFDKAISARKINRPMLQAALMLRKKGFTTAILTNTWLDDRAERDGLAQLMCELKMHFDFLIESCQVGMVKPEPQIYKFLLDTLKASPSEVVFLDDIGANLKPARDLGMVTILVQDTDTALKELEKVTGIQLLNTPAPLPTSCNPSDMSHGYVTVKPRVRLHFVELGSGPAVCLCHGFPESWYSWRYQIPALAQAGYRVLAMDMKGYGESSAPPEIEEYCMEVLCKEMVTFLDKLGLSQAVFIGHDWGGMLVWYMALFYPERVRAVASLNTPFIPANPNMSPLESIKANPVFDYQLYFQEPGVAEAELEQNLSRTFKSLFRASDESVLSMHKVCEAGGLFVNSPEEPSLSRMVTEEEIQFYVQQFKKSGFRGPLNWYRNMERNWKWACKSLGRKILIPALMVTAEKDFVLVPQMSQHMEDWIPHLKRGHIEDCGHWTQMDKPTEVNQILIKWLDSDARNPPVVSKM
- protocol-text: Inhibition of recombinant human sEH expressed in baculovirus expression system using CMNPC as substrate preincubated for 5 mins followed by substrate addition measured for 10 mins by fluorescent based assay
Answer each item with its documented IC50.
Answers are plain numbers, in nM.

CC12CC3CC(C)(C1)CC(NC(=S)Nc1cccc(F)c1)(C3)C2 = 58
S=C(NCCNC(=S)NC12CC3CC(CC(C3)C1)C2)NC12CC3CC(CC(C3)C1)C2 = 987
S=C(NCCc1ccccc1)NC1C2CC3CC(C2)CC1C3 (stereo not given) = 8.2

Your task in this section: give IC50 for each listed record.
1. S=C(Nc1ccccc1)NC1C2CC3CC(C2)CC1C3 (stereo not given)
2. S=C(NCCCNC(=S)NC12CC3CC(CC(C3)C1)C2)NC12CC3CC(CC(C3)C1)C2
3. S=C(NCCCCCCCCNC(=S)NC12CC3CC(CC(C3)C1)C2)NC12CC3CC(CC(C3)C1)C2
4. S=C(NCCCCCCCNC(=S)NC12CC3CC(CC(C3)C1)C2)NC12CC3CC(CC(C3)C1)C2

1. 229
2. 97.6
3. 9.8
4. 7.2

Batch lookup, IC50 per entry.
1. S=C(NC12CC3CC(CC(C3)C1)C2)NC12CC3CC(CC(C3)C1)C2
2. CC12CC3CC(C)(C1)CC(NC(=S)Nc1ccc(F)cc1)(C3)C2

1. 11.2
2. 551

Each compound below has a reported value. Please supply its IC50.
1. S=C(NCCCCCNC(=S)NC12CC3CC(CC(C3)C1)C2)NC12CC3CC(CC(C3)C1)C2
2. S=C(NC1C2CC3CC(C2)CC1C3)NC12CC3CC(CC(C3)C1)C2 (stereo not given)

1: 21.1; 2: 14.8

// for each compound below, give its IC50
1. CC12CC3CC(C)(C1)CC(NC(=S)NC14CC5CC(CC(C5)C1)C4)(C3)C2
2. S=C(NCC12CC3CC(CC(C3)C1)C2)Nc1ccc(C23CC4CC(CC(C4)C2)C3)cc1
3. CC(NC(=S)Nc1ccc(C23CC4CC(CC(C4)C2)C3)cc1)C12CC3CC(CC(C3)C1)C2 (stereo not given)
4. S=C(Nc1ccc(Cl)cc1)NC12CC3CC(CC(C3)C1)C2
5. S=C(NCCCCCCCCCCNC(=S)NC12CC3CC(CC(C3)C1)C2)NC12CC3CC(CC(C3)C1)C2

1. 16.1
2. 5900
3. 57400
4. 34.7
5. 15.3

====

- protocol-text: Aqueous solubility of the compound in 0.1 M sodium phosphate buffer at pH 7.4
- Format: physicochemical
parameter-measured: solubility

S=C(NCCC12CC3CC(CC(C3)C1)C2)NC1C2CC3CC(C2)CC1C3 (stereo unspecified) = 125 to 150 µM
CC(NC(=O)NCCCCNC(=O)NC(C)C12CC3CC(CC(C3)C1)C2)C12CC3CC(CC(C3)C1)C2 (stereo unspecified) = 10 to 25 µM
S=C(NC1C2CC3CC(C2)CC1C3)NC1C2CC3CC(C2)CC1C3 (stereo unspecified) = 50 to 60 µM
S=C(NCCCCCCCNC(=S)NC12CC3CC(CC(C3)C1)C2)NC12CC3CC(CC(C3)C1)C2 = 70 to 80 µM
Fc1cccc(NC(=S)NCCC23CC4CC(CC(C4)C2)C3)c1 = 80 to 90 µM

// below: solubility requested for another compound
Entry under review: `S=C(NCCCCCCNC(=S)NC12CC3CC(CC(C3)C1)C2)NC12CC3CC(CC(C3)C1)C2` . Reported solubility? 70 to 80 µM

====

- protocol-text: Aqueous solubility of the compound in 0.1 M sodium phosphate buffer at pH 7.4
- Assay type: physicochemical
parameter-measured: solubility

S=C(NCCCCNC(=S)NC12CC3CC(CC(C3)C1)C2)NC12CC3CC(CC(C3)C1)C2 = 90 to 100 µM
Fc1ccc(NC(=S)NCC23CC4CC(CC(C4)C2)C3)cc1 = 150 to 175 µM
S=C(NCCCCNC(=S)NCC12CC3CC(CC(C3)C1)C2)NCC12CC3CC(CC(C3)C1)C2 = 140 to 160 µM

Would you be so kind as to report solubility for each listed record?
1. CC(NC(=S)NCCc1ccccc1)C12CC3CC(CC(C3)C1)C2 (configuration not stated)
2. S=C(NCCCNC(=S)NC12CC3CC(CC(C3)C1)C2)NC12CC3CC(CC(C3)C1)C2

1: 20 to 30 µM; 2: 90 to 100 µM

Go through the list and state solubility for each entry.
1. S=C(NC12CC3CC(CC(C3)C1)C2)NC12CC3CC(CC(C3)C1)C2
2. S=C(NC1C2CC3CC(C2)CC1C3)NC12CC3CC(CC(C3)C1)C2 (configuration not stated)

30 to 40 µM
60 to 70 µM

====

- assayed-system: Bifunctional epoxide hydrolase 2 (Homo sapiens, UniProt P34913)
- protocol-text: Inhibition of recombinant human sEH expressed in baculovirus expression system using CMNPC as substrate preincubated for 5 mins followed by substrate addition measured for 10 mins by fluorescent based assay
pIC50: −log10 of the molar value.
The label depends only on pIC50: 1 (yes) if it is at least 6, 0 (no) if it is smaller.

Reference set (5 entries):
Fc1ccc(NC(=S)NCC23CC4CC(CC(C4)C2)C3)cc1 = 1 (yes)
CC12CC3CC(C)(C1)CC(NC(=S)NC1C4CC5CC(C4)CC1C5)(C3)C2 (stereo unspecified) = 1 (yes)
S=C(Nc1ccc(C23CC4CC(CC(C4)C2)C3)cc1)Nc1ccc(C23CC4CC(CC(C4)C2)C3)cc1 = 0 (no)
S=C(NCCc1ccccc1)NCC12CC3CC(CC(C3)C1)C2 = 1 (yes)
S=C(NCCc1ccccc1)NCCC12CC3CC(CC(C3)C1)C2 = 1 (yes)

Confirm if pIC50 reported for the molecule CC(NC(=S)NC1C2CC3CC(C2)CC1C3)C12CC3CC(CC(C3)C1)C2 (stereo unspecified) is 6 or above. 0 (no)

Tell me whether pIC50 is at least 6 here: `S=C(NCCCCCCNC(=S)NC12CC3CC(CC(C3)C1)C2)NC12CC3CC(CC(C3)C1)C2` 1 (yes)

# bool: pIC50 of S=C(NCc1ccccc1)NC1C2CC3CC(C2)CC1C3 (stereo unspecified) >= 6 1 (yes)

Decide: pIC50 of `Fc1ccc(NC(=S)NCCC23CC4CC(CC(C4)C2)C3)cc1` >= 6? 1 (yes)

Determine whether measured pIC50 meets or exceeds 6 for `S=C(NCCC12CC3CC(CC(C3)C1)C2)Nc1ccc(C23CC4CC(CC(C4)C2)C3)cc1` 0 (no)

Quick check: does `Fc1cccc(NC(=S)NCC23CC4CC(CC(C4)C2)C3)c1` have pIC50 greater than or equal to 6? 1 (yes)

Given the entry CC(NC(=S)NC12CC3CC(CC(C3)C1)C2)C12CC3CC(CC(C3)C1)C2 (stereo unspecified) , answer whether its pIC50 meets or surpasses 6. 1 (yes)

Please tell me: is the molecule CC(NC(=S)Nc1ccccc1)C12CC3CC(CC(C3)C1)C2 (stereo unspecified) at or over 6 in terms of pIC50? 0 (no)

Decide: is the reported value of pIC50 for CC(NC(=S)Nc1cccc(F)c1)C12CC3CC(CC(C3)C1)C2 (stereo unspecified) equal to or greater than 6? 1 (yes)

Could you please find out whether S=C(NC1C2CC3CC(C2)CC1C3)NC1C2CC3CC(C2)CC1C3 (stereo unspecified) has pIC50 that meets 6 or exceeds it? 1 (yes)
